assayed-system: human CD33 S166A (human, UniProt P20138 18-364)
Sequence (P20138 18-364 S166A limits assumed): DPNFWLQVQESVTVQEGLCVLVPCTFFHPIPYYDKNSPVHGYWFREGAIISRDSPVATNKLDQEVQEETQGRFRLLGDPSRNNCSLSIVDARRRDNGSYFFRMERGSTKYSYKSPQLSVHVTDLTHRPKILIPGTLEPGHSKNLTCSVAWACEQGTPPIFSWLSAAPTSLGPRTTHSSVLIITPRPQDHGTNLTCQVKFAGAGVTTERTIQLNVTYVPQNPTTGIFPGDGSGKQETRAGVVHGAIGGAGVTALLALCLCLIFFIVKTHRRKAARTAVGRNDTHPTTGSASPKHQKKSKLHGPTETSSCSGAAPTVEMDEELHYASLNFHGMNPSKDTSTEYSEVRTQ
protocol-text: flow cytometry on HEK293-T, alanine scan
quantity-kind: Mean % WT Binding (% WT binding)
One number for each entry, in % WT binding.

Examples with their reported Mean % WT Binding follow.
# binder, Mean % WT Binding / % WT binding
data = [
    ("Refmab #4 (antibody, V domains shown, The alanine scan used IgG or Fab) VH: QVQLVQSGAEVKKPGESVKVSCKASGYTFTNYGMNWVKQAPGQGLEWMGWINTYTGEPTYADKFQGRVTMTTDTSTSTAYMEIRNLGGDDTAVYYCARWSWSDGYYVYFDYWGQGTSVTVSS VL: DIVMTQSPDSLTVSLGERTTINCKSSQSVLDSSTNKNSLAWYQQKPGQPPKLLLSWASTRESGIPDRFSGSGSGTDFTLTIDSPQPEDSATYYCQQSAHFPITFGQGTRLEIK", 110),
    ("Refmab #1 (antibody, V domains shown, The alanine scan used IgG or Fab; also called hP67.6) VH: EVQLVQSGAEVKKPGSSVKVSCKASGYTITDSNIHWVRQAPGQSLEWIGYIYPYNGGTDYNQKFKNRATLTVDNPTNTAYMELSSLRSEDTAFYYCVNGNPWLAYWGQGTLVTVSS VL: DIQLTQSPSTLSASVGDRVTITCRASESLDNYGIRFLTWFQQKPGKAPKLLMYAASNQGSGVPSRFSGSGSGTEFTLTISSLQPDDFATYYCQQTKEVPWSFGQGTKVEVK", 98.3),
    ("Refmab #2 (antibody, V domains shown, The alanine scan used IgG or Fab) VH: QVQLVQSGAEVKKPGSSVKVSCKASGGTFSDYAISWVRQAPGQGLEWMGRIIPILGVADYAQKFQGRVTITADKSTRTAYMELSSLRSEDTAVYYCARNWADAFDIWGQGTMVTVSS VL: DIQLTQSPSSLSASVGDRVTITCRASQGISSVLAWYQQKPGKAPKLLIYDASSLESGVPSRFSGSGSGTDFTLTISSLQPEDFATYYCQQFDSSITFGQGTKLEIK", 114),
]

What value of Mean % WT Binding has been reported for the following binder? Refmab #3 (antibody, V domains shown, The alanine scan used IgG or Fab) VH: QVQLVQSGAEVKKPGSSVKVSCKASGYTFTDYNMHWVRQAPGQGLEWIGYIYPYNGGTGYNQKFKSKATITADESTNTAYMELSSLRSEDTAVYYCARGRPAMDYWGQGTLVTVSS VL: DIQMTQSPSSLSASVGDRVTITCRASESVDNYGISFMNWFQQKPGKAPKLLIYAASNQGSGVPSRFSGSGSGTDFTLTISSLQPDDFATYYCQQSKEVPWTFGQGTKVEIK
131

Source of measurements: patent US20260242735A1
